Value source: PubChem BioAssay (EPA / NIEHS)

Read-out: ABC Transporter (ABCC2), ABCC2 (gene 1244)
assay_procedure: LTEA_HepaRG_ABCC2: Life Technologies and Expression Analysis (LTEA) Assay for ABC Transporter (ABCC2) using HepaRG (AID 2283464)
conditions: mRNA level, 48 h; actives raise or lower the signal
Active and inactive are the calls of the source. Rule for the calls: active = hit-call score of the fitted dose curve at least 0.9, where 1 is the maximum; inactive = score below 0.9.
Select the matching outcome among True = active, False = inactive

CCc1nn(C)c(C(=O)NCc2ccc(C(C)(C)C)cc2)c1Cl
True
CS/C(C)=N/OC(=O)N(C)SN(C)C(=O)O/N=C(\C)SC
False
CCNc1nc(Cl)nc(NC(C)C)n1
False
CCOP(=S)(OCC)SCn1c(=O)oc2cc(Cl)ccc21
False
C=CC1(C)OC(=O)N(c2cc(Cl)cc(Cl)c2)C1=O (configuration not stated)
False
N#Cc1cc(Br)c(O)c(Br)c1
True
C=CCC1=C(C)C(OC(=O)C2C(C=C(C)C)C2(C)C)CC1=O (configuration not stated)
False
CCCCOC(=O)c1ccccc1C(=O)OCCCC
False

Consider the record given below.
GET /call?item= CCCCNC(=O)n1c(NC(=O)OC)nc2ccccc21 returns the recorded outcome of this test.
False

====

Read-out: Insulin-like growth factor-binding protein 1 (IGFBP1), IGFBP1 (gene 3484)
assay_procedure: LTEA_HepaRG_IGFBP1: Life Technologies and Expression Analysis (LTEA) Assay for Insulin-like growth factor-binding protein 1 (IGFBP1) using HepaRG (AID 2283508)
conditions: mRNA level, 48 h; actives raise or lower the signal
Activity calls are given as the source filed them. Rule for the calls: active = hit-call score of the fitted dose curve at least 0.9, where 1 is the maximum; inactive = score below 0.9.
Please state which outcome applies, choosing from active, inactive

Study these solved cases before continuing.
Cc1cc(Cl)ccc1OCC(=O)O
inactive
CCOC(=O)CC(SP(=S)(OC)OC)C(=O)OCC (configuration not stated)
inactive
COC(=O)C=C(C)OP(=O)(OC)OC
inactive
CCCCC(CC)COC(=O)c1ccccc1C(=O)OCC(CC)CCCC (configuration not stated)
inactive
CCOc1cc(Oc2ccc(C(F)(F)F)cc2Cl)ccc1[N+](=O)[O-]
active

Dear colleague, could you share the recorded outcome for Cc1c(F)c(F)c(COC(=O)C2C(/C=C(\Cl)C(F)(F)F)C2(C)C)c(F)c1F (configuration not stated) when you have a moment?
inactive

Another molecule to look at: C=CCC1=C(C)[C@@H](OC(=O)[C@@H]2[C@@H](C=C(C)C)C2(C)C)CC1=O
inactive

Do the same for N#CC(CCc1ccc(Cl)cc1)(Cn1cncn1)c1ccccc1 (configuration not stated) please
active

Now give it for CCOP(=S)(OCC)SCn1c(=O)oc2cc(Cl)ccc21 too.
inactive

Do the same for CC1=C(C(=O)Nc2ccccc2)SCCO1 please
inactive

Next up: Cc1ccc(-c2c(Cl)nc(C#N)n2S(=O)(=O)N(C)C)cc1
active

Now consider CC(C)(C)c1ccc(CSc2cnn(C(C)(C)C)c(=O)c2Cl)cc1 and answer again.
active

====

System: turtle Estrogen Receptor (ERa), gene 101933533
assay_procedure: ATG_trERa_XSP2: Attagene TRANS-FACTORIAL Multi-Species (XSP2) HepG2 Assay for turtle Estrogen Receptor (ERa) (AID 2283812);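 note: human HepG2 liver cells transiently expressing turtle ERa-Gal4 chimeric receptor; reporter mRNA from GAL4-UAS units measured by RT-PCR and capillary electrophoresis; actives raise reporter signal above DMSO so AC50 reflects agonist activity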
Inconclusive results are not listed. Activity calls are given as the source filed them. Rule for the calls: active = hit-call score of the fitted dose curve at least 0.9, where 1 is the maximum; inconclusive = response in the unintended direction; inactive = score below 0.9.
Just give me one of these, please: Y for active, N for inactive

COC(=O)N(OC)c1ccccc1COc1ccn(-c2ccc(Cl)cc2)n1
N
CCCCOC(=O)c1ccccc1C(=O)OCCCC
Y
CO/C=C(/C(=O)OC)c1ccccc1Oc1cc(Oc2ccccc2C#N)ncn1
N

Lab log entry: CC(C)(C)c1ccc(CSc2cnn(C(C)(C)C)c(=O)c2Cl)cc1 — outcome as called in the assay?
N

Also CCCN(CCC)c1c([N+](=O)[O-])cc(S(N)(=O)=O)cc1[N+](=O)[O-] ?
N

Now consider C#CCOS(=O)OC1CCCCC1Oc1ccc(C(C)(C)C)cc1 (stereo not drawn) .
N

Same for CCOP(=S)(OCC)SCn1c(=O)oc2cc(Cl)ccc21
N

Another: CCCC1COC(Cn2cncn2)(c2ccc(Cl)cc2Cl)O1 (stereo not drawn)
Y

====

assay_procedure: CCTE_Shafer_MEA_dev_network_spike_peak: CCTE's Neural Network Formation Assay for Mean Number of Electrodes in Network Spike, Shafer Lab (AID 2284049)
Method: CCTE_Shafer_MEA_dev assay is conducted using Axion Biosystems 48 well microelectrode array (MEA) plates and Maestro recording system. Each well of the MEA plate contains a grid of 16 microelectrodes embedded in the culture surface. Electrically active cells, such as neurons, can be cultured over the electrodes, and electrical activity in these cells can be recorded extracellularly. […]
Activity calls are given as the source filed them. The calls were made as follows: active = hit-call score of the fitted dose curve at least 0.9, where 1 is the maximum; inactive = score below 0.9.
Outcome (select one): true (active), false (inactive)

Examples with answers:
C=CC1(C)OC(=O)N(c2cc(Cl)cc(Cl)c2)C1=O (stereo unspecified)
true
COP(=S)(OC)Oc1nc(Cl)c(Cl)cc1Cl
false

Just curious, what result did CCNc1nc(Cl)nc(NC(C)C)n1 get here?
false

====

assay_procedure: IUF_NPC2a_radial_glia_migration_72hr: Leibniz Research Institute for Environmental Medicine (IUF) 72-hour Neural Progenitor Cell Migration Assay for Radial Glia Migration (NPC2a) (AID 2284299)
Method: IUF_NPC2-5 is a cell-based, multiplexed assay that uses hNPC, a human primary neural progenitor cells, with measurements taken at 72 or 120 hours after chemical dosing in a 96-well plate. […] The processes radial glia migration, neuronal and oligodendrocyte migration as well as neuronal differentiation, neuronal morphology and oligodendrocyte differentiation are studied using automated phase contrast imaging and automated fluorescence imaging in combination with high content image analysis. […]
Activity calls are given as the source filed them. The calls were made as follows: active = hit-call score of the fitted dose curve at least 0.9, where 1 is the maximum; inactive = score below 0.9.
Pick from True = active, False = inactive when you respond.

N#Cc1nn(-c2c(Cl)cc(C(F)(F)F)cc2Cl)c(N)c1S(=O)C(F)(F)F (centres undefined)
False
COC(=O)N(OC)c1ccccc1COc1ccn(-c2ccc(Cl)cc2)n1
True
CNC(=O)ON=CC(C)(C)SC
False
CO/C=C(/C(=O)OC)c1ccccc1Oc1cc(Oc2ccccc2C#N)ncn1
False
CCOC(=O)CC(SP(=S)(OC)OC)C(=O)OCC (centres undefined)
False
CC(C)(C)c1ccc(CSc2cnn(C(C)(C)C)c(=O)c2Cl)cc1
False

Assay outcome for CCOc1cc(Oc2ccc(C(F)(F)F)cc2Cl)ccc1[N+](=O)[O-] : what was it?
False

Cool, now COP(=S)(OC)Oc1nc(Cl)c(Cl)cc1Cl
False

Record: COP(N)(=O)SC (centres undefined)
False

====

assay_procedure: CCTE_Deisenroth_AIME_384WELL_CTox_Active: Cytotoxicity Assessment (CTOX) in CCTE's 384-well Estrogen Receptor Transactivation Assay with AIME metabolic competence (metabolism positive), Deisenroth Lab (AID 2284037);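 note: chemicals first conditioned 2 h by alginate-bound induced rat liver S9 before cells; activity means signal loss indicating cell death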
Inconclusive results are not listed. Active and inactive are the calls of the source. The calls were made as follows: active = hit-call score of the fitted dose curve at least 0.9, where 1 is the maximum; inconclusive = response in the unintended direction; inactive = score below 0.9.
measured_endpoint: AC50

Observe how each entry below is paired with its result.
CCON=C(CC)C1=C(O)CC(c2c(C)cc(C)cc2C)CC1=O (stereo unspecified)
inactive
Oc1ccccc1-c1ccccc1
inactive
COc1cnc(OC)n2nc(NS(=O)(=O)c3c(OCC(F)F)cccc3C(F)(F)F)nc12
inactive
N#Cc1cc(Br)c(O)c(Br)c1
inactive
CCNc1nc(Cl)nc(NC(C)C)n1
inactive

Now for another entry.
Dear colleague, I am looking for the recorded AC50 of the following compound: COC(=O)N(OC)c1ccccc1COc1ccn(-c2ccc(Cl)cc2)n1
2680 nM (active)

====

system_name: human Beta-secretase (BACE), BACE1 (gene 23621)
assay_procedure: NVS_ENZ_hBACE: NovaScreen (NVS) Enzymatic Assay for human Beta-secretase (BACE) (AID 2283140);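 note: hits are inhibitors that reduce fluorescent substrate signal versus DMSO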
Results filed as inconclusive are left out. Active and inactive are the calls of the source. The calls were made as follows: active = hit-call score of the fitted dose curve at least 0.9, where 1 is the maximum; inconclusive = response in the unintended direction; inactive = score below 0.9.
Your reply should match one of these outcome classes. 1.0 for active, 0.0 for inactive

// outcome(item) with item = C=CCC1=C(C)C(OC(=O)C2C(C=C(C)C)C2(C)C)CC1=O (configuration not stated)
0.0

Also need CC(C)Oc1cc(-n2nc(C(C)(C)C)oc2=O)c(Cl)cc1Cl , thanks.
0.0

====

system_name: Estrogen receptor (Homo sapiens)
assay_procedure: ATG_hERa_XSP2: Attagene TRANS-FACTORIAL Multi-Species (XSP2) HepG2 Assay for human Estrogen Receptor (ERa) (AID 2283827)
Records with an inconclusive call do not appear. The source made the active and inactive calls. How the source made its calls: active means hit-call score of the fitted dose curve at least 0.9, where 1 is the maximum; inconclusive means response in the unintended direction; inactive means score below 0.9.
measured_endpoint: AC50

Worked cases, AC50 given:
CCCN(CCC)c1c([N+](=O)[O-])cc(S(N)(=O)=O)cc1[N+](=O)[O-]
4 µM (active)
CON(C)C(=O)Nc1ccc(Cl)c(Cl)c1
inactive
CCCCC(CC)COC(=O)c1ccccc1C(=O)OCC(CC)CCCC (stereo not given)
inactive
C=CC1(C)OC(=O)N(c2cc(Cl)cc(Cl)c2)C1=O (stereo not given)
3.58 µM (active)

Kindly consider the entry below.
Endpoint output: AC50 of CC(C)Oc1cc(-n2nc(C(C)(C)C)oc2=O)c(Cl)cc1Cl . Value?
14.4 µM (active)

====

Read-out: Interferon-gamma inducible Protein 10 (IP10), CXCL10 (gene 3627)
assay_procedure: BSK_hDFCGF_IP10: BioMAP Diversity Plus: hDFCGF Assay for Interferon-gamma inducible Protein 10 (IP10) Biomarker Activity (AID 2283053)
conditions: primary human foreskin fibroblasts; actives raise or lower the signal
Procedure: BSK_hDFCGF is a cell-based, multiplexed-readout assay that uses foreskin fibroblast, a human skin primary cell, with measurements taken at 24 hours after chemical dosing in a 96-well plate.BSK_hDFCGF_IP10 is an assay component measured in the BSK_hDFCGF assay. It measures IP-10 antibody related to regulation of gene expression using ELISA technology.Data from the assay component BSK_hDFCGF_IP10 was analyzed into 1 assay endpoint. […]
The source made the active and inactive calls. Rule for the calls: active = hit-call score of the fitted dose curve at least 0.9, where 1 is the maximum; inactive = score below 0.9.
measured_endpoint: AC50

Observe how each entry below is paired with its result.
CCCCNC(=O)n1c(NC(=O)OC)nc2ccccc21
33.8 µM (active)
CC(C)(C)c1ccc(CSc2cnn(C(C)(C)C)c(=O)c2Cl)cc1
inactive
COC(=O)C=C(C)OP(=O)(OC)OC
inactive
COC(=O)N(OC)c1ccccc1COc1ccn(-c2ccc(Cl)cc2)n1
inactive
N#Cc1nn(-c2c(Cl)cc(C(F)(F)F)cc2Cl)c(N)c1S(=O)C(F)(F)F (stereo unspecified)
2.24 µM (active)

Requested read-out: AC50. Entry: COc1cnc(OC)n2nc(NS(=O)(=O)c3c(OCC(F)F)cccc3C(F)(F)F)nc12
inactive
